biological target: Human plasma kallikrein (Homo sapiens); construct: yields a heavy chain (371 amino acids) and a light chain (248 amino acids); experiment: Plasma Kallikrein Assay; settings: purified Human plasma kallikrein 0.5 nM, substrate Acetyl-K-P-R-AFC, pH 7.4
Sequence (P03952 391-638 limits assumed): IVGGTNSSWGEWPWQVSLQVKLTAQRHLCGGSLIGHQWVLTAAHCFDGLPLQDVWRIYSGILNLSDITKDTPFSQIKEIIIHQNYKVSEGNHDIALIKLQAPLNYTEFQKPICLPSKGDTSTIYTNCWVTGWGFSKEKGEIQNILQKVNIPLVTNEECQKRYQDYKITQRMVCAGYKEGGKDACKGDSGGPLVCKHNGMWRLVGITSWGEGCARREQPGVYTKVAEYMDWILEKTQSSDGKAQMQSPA
Sequence (P03952 20-390 partner limits assumed): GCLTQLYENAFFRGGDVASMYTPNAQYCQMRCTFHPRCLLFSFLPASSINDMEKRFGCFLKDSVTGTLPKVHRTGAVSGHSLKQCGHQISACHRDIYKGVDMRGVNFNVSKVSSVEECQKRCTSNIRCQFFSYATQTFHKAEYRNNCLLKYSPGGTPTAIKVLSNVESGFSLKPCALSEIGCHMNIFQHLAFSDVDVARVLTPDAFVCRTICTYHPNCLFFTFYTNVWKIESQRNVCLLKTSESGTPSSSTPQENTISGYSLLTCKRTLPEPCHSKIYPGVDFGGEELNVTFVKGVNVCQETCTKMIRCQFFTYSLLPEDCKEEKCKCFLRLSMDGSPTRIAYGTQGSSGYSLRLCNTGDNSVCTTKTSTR

| compound | measurement_units | IC50 |
| --- | --- | --- |
| O=C(Nc1cnn(Cc2cnc(N3CCC3)nc2)c1)c1nc(-c2c(C(F)F)ccc(Cl)c2F)cnc1C(F)F | nM | 8.6 |
| CC(c1cnc(N2CC[C@H]2CN2CCC[C@@H](O)C2)nc1)n1cc(NC(=O)c2cncc(-c3c(C(F)F)ccc(Cl)c3F)n2)cn1 (stereo partly drawn) | nM | 1.2 |
| CC(c1cnc(N2CC3CC3C2C#N)nc1)n1cc(NC(=O)c2cncc(-c3c(C(F)F)ccc(Cl)c3F)n2)cn1 (single isomer, unassigned) [Example 197] | nM | 412 |
